tested on: IMR-32; experiment: Growth inhibition of human IMR32 cells at 20 uM after 48 hrs by sulpharhodamine B assay; type: functional; settings: IMR-32, 48 h, read-out: GI
Consider the following molecules; for each one, report its inhibition of growth at 20 µM.

Completed entries (count: 3):
[[record]]
molecule = "CC1C(C(C)(C)O)CCC1(C)/C=C/c1ccc(O)cc1 (centres undefined)"
target_system = "IMR-32"
reported_value = "62%"

[[record]]
molecule = "O=c1[nH]cc(F)c(=O)[nH]1"
target_system = "IMR-32"
reported_value = "79%"

[[record]]
molecule = "C=C[C@@](C)(/C=C/c1ccc(OC(C)=O)cc1)CCC=C(C)C"
target_system = "IMR-32"
reported_value = "48%"


With those in mind, consider the next molecule.
Ask | Any idea what its inhibition of growth at 20 µM is? The molecule is COc1ccc(/C=C/[C@](C)(/C=C/c2ccc(O)cc2)CCC=C(C)C)cc1
Reply | 40%

---

Consider the following molecules; for each one, report its inhibition of growth at 30 µM.
tested on: IMR-32; assay: Growth inhibition of human IMR32 cells at 30 uM after 48 hrs by sulpharhodamine B assay; type: functional; settings: IMR-32, 48 h, read-out: GI
Answers are plain numbers, in %.

[[record]]
molecule = "C=C[C@@](C)(/C=C/c1ccc(OC(C)=O)cc1)CCC=C(C)C"
reported_value = 59

[[record]]
molecule = "C=C[C@@](C)(/C=C/c1ccc(OC)cc1)CCC=C(C)C"
reported_value = 23

[[record]]
molecule = "CC1C(C(C)(C)O)CCC1(C)/C=C/c1ccc(O)cc1 (configuration not stated)"
reported_value = 57

[[record]]
molecule = "C=C[C@@](C)(/C=C/c1ccc(O)cc1)CCC=C(C)C"
reported_value = 31


Parameter requested: inhibition of growth at 30 µM. Apply to each item below.
1. C=C[C@@](C)(/C=C/c1ccc(OC(=O)CCCCCCCCC)cc1)CCC=C(C)C
2. CC(C)=CCC[C@@](C)(/C=C/c1ccc(N)cc1)/C=C/c1ccc(O)cc1
3. COc1ccc(/C=C/[C@](C)(/C=C/c2ccc(O)cc2)CCC=C(C)C)cc1

Reply |
22
14
51

---

system: HEp-2; test: Growth inhibition of human Hep2 cells at 50 uM after 48 hrs by sulpharhodamine B assay; assay type: functional; conditions: HEp-2, 48 h, read-out: GI
inhibition of growth at 50 µM of 50% or higher: 1. Under 50%: 0.

Use these answered entries as a reference point.
[[record]]
compound = "C=C[C@@](C)(/C=C/c1ccc(OC(C)=O)cc1)CCC=C(C)C"
target_system = "HEp-2"
class_name = 1

[[record]]
compound = "CC(C)=CCC[C@@](C)(/C=C/c1ccc(N)cc1)/C=C/c1ccc(O)cc1"
target_system = "HEp-2"
class_name = 0

[[record]]
compound = "CC1C(C(C)(C)O)CCC1(C)/C=C/c1ccc(O)cc1 (configuration not stated)"
target_system = "HEp-2"
class_name = 1

[[record]]
compound = "C=C[C@@](C)(/C=C/c1ccc(O)cc1)CCC=C(C)C"
target_system = "HEp-2"
class_name = 1

[[record]]
compound = "COc1ccc(/C=C/[C@](C)(/C=C/c2ccc(O)cc2)CCC=C(C)C)cc1"
target_system = "HEp-2"
class_name = 1


Ask | Check if inhibition of growth at 50 µM >= 50% (inclusive). Item: C=C[C@@](C)(/C=C/c1ccc(OC)cc1)CCC=C(C)C
Reply | 0

Ask | Could you do the same for C=C[C@@](C)(/C=C/c1ccc(OC(=O)CCCCCCCCC)cc1)CCC=C(C)C , please?
Reply | 0

---

system: HL-60; test: Cytotoxicity against human HL60 cells after 24 hrs by MTT assay; type: functional, cell-based; conditions: HL-60, 24 h
Property Label: pIC50
Numbers only, as −log10 of the molar value.

[[record]]
compound = "COc1ccc(/C=C/[C@](C)(/C=C/c2ccc(O)cc2)CCC=C(C)C)cc1"
target_system = "HL-60"
reported_value = 4.80


With those in mind, consider the next compound.
Ask | What pIC50 appears in the records for this compound with HL-60? CC1C(C(C)(C)O)CCC1(C)/C=C/c1ccc(O)cc1 (configuration not stated)
Reply | 4.74

---

test system: THP-1; experiment: Growth inhibition of human THP1 cells at 30 uM after 48 hrs by sulpharhodamine B assay; format: functional; details: THP-1, 48 h, read-out: GI
inhibition of growth at 30 µM of 40% or higher: Fulfilled. Under 40%: Not fulfilled.

Use these answered entries as a reference point.
[[record]]
compound = "C=C[C@@](C)(/C=C/c1ccc(OC(C)=O)cc1)CCC=C(C)C"
class_name = "Fulfilled"

[[record]]
compound = "COc1ccc(/C=C/[C@](C)(/C=C/c2ccc(O)cc2)CCC=C(C)C)cc1"
class_name = "Fulfilled"

[[record]]
compound = "CC1C(C(C)(C)O)CCC1(C)/C=C/c1ccc(O)cc1 (configuration not stated)"
class_name = "Fulfilled"

[[record]]
compound = "CC(C)=CCC[C@@](C)(/C=C/c1ccc(N)cc1)/C=C/c1ccc(O)cc1"
class_name = "Not fulfilled"

[[record]]
compound = "C=C[C@@](C)(/C=C/c1ccc(O)cc1)CCC=C(C)C"
class_name = "Fulfilled"


Ask | Check if inhibition of growth at 30 µM >= 40% (inclusive). Item: C=C[C@@](C)(/C=C/c1ccc(OC)cc1)CCC=C(C)C
Reply | Not fulfilled

---

tested on: MCF7; assay: Growth inhibition of human MCF7 cells at 50 uM after 48 hrs by sulpharhodamine B assay; assay type: functional; settings: MCF7, 48 h, read-out: GI
Property Label: inhibition of growth at 50 µM (%)
Answers are plain numbers, in %.

[[record]]
compound = "C=C[C@@](C)(/C=C/c1ccc(OC(=O)CCCC)cc1)CCC=C(C)C"
property_label = "inhibition of growth at 50 µM"
reported_value = 25


Parameter requested: inhibition of growth at 50 µM. Apply to each item below.
1. COc1ccc(/C=C/[C@@](C)(/C=C/c2ccc(O)cc2)CCC=C(C)C)cc1C=O
2. C=C[C@@](C)(/C=C/c1ccc(O)cc1)CCC1OC1(C)C (stereo partly drawn)
3. C=C[C@@](C)(/C=C/c1ccc(O)cc1)CC/C=C(/C)C=O
4. C=C[C@@](C)(/C=C/c1ccc(O)c([N+](=O)[O-])c1)CCC=C(C)C
5. C=C[C@@](C)(/C=C/c1ccc(OC(=O)CC)cc1)CCC=C(C)C
6. CC[C@](C)(CCCC(C)C)CCc1cc(Br)c(O)c(Br)c1
7. COc1ccc(/C=C/[C@@](C)(/C=C/c2ccc(O)cc2)CCC=C(C)C)cc1

Reply |
1: 36; 2: 33; 3: 12; 4: 49; 5: 23; 6: 42; 7: 55

Parameter requested: inhibition of growth at 50 µM. Apply to each item below.
1. C=C[C@@](C)(/C=C/c1ccc(O)cc1)CCC=C(C)C [BAKUCHIOL]
2. C=C[C@@](C)(/C=C/c1ccc(O)c(N)c1)CCC=C(C)C
3. C=C[C@@](C)(/C=C/c1ccc(OC(=O)CCCCCCCCCCCCCCC)cc1)CCC=C(C)C
4. C=C[C@@](C)(/C=C/c1ccc(OC(=O)CCCCCCC)cc1)CCC=C(C)C
5. COc1ccc(/C=C/[C@@](C)(/C=C/c2ccc(O)cc2)CCC=C(C)C)cc1CO
6. C=C[C@@](C)(/C=C/c1ccc(OC(=O)CCC)cc1)CCC=C(C)C
7. C=C[C@@](C)(/C=C/c1ccc(OC(=O)CCCCCCCCC)cc1)CCC=C(C)C

Reply |
1. 63
2. 17
3. 24
4. 12
5. 42
6. 20
7. 10

---

tested on: PC-3; test: Growth inhibition of human PC3 cells at 20 uM after 48 hrs by sulpharhodamine B assay; type: functional; conditions: PC-3, 48 h, read-out: GI
Property Label: inhibition of growth at 20 µM (%)
Answers are plain numbers, in %.

Completed entries (count: 3):
[[record]]
molecule = "O=c1[nH]cc(F)c(=O)[nH]1"
reported_value = 75

[[record]]
molecule = "CC1C(C(C)(C)O)CCC1(C)/C=C/c1ccc(O)cc1 (centres undefined)"
reported_value = 57

[[record]]
molecule = "COc1ccc(/C=C/[C@](C)(/C=C/c2ccc(O)cc2)CCC=C(C)C)cc1"
reported_value = 58


With those in mind, consider the next molecule.
Ask | Any idea what its inhibition of growth at 20 µM is? The molecule is C=C[C@@](C)(/C=C/c1ccc(OC(C)=O)cc1)CCC=C(C)C
Reply | 45

---

Consider the following compounds; for each one, report its pIC50.
system: A549; test: Cytotoxicity against human A549 cells after 48 hrs by sulpharhodamine B assay; assay type: functional, cell-based; details: A549, 48 h
Give bare numbers, as −log10 of the molar value.

[[record]]
compound = "C=C[C@@](C)(/C=C/c1ccc(OC(C)=O)cc1)CCC=C(C)C [ACETYLBAKUCHIOL]"
property_label = "pIC50"
reported_value = 4.40

[[record]]
compound = "COc1ccc(/C=C/[C@](C)(/C=C/c2ccc(O)cc2)CCC=C(C)C)cc1"
property_label = "pIC50"
reported_value = 4.92


Ask | Any idea what its pIC50 is? The compound is CC1C(C(C)(C)O)CCC1(C)/C=C/c1ccc(O)cc1 (stereo not drawn)
Reply | 4.77
